Recorded measurements of phosphorylation enrichment, one per entry
Test Target: Hck (UniProt P08631)
Sequence (P08631 whole entry, looked up): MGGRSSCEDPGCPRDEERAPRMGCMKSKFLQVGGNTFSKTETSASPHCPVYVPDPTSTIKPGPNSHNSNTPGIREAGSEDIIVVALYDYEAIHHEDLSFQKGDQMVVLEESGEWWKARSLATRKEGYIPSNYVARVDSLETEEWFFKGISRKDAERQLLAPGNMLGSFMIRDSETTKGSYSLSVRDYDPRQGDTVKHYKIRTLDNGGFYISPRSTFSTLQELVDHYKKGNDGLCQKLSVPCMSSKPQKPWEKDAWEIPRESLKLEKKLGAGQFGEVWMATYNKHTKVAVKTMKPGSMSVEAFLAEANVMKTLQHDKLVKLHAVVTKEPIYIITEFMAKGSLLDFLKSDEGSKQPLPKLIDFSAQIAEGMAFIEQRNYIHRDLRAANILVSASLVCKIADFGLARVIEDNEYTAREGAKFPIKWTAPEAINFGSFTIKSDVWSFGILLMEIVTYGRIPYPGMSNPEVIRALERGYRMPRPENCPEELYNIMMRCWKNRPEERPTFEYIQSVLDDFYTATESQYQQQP
Procedure Text: phosphorylation enrichment, bacterial display (enrichment ratio); higher = better substrate or ligand; peptides without Tyr show the background;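 further: 11-residue human phosphosite peptides and single-mutation variants displayed on the E. coli surface, counted by deep sequencing, each peptide's frequency after selection divided by its frequency in the unselected input library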;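 further: frequency after pTyr selection over input frequency; kinase dosed for 20-30% of maximal phosphorylation in three min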
// return a plain number; no unit text

Check out these entries, answers already filled in.
[[record]]
seq = "EFNLMYHGTKE [IRF6_Y97_D98H]"
test_readout = "phosphorylation enrichment"
reading = 0.455

[[record]]
seq = "VQVAFYTMMMN [SPATA17_Y84_YF]"
test_readout = "phosphorylation enrichment"
reading = 0.769


Now let's try a different one.
## Task Look up phosphorylation enrichment: AFGEVYEGQES [ALK_Y1131_V1135E]
## Result 0.629
